- System: ACHN
- assay_notes: NCI tumour cell line growth inhibition, 48 h
Structures can show the parent of a compound that is named as a salt. The source made the active and inactive calls. No stated cut-off is given here; in the data, active = GI50 up to about 1.1 µM and inactive = higher.
endpoint_name: GI50

// below: answered molecules
> print(dat)
                                   molecule  target.desc  reported.measurement
1  COc1ccc(/C=C(/c2ccccc2)c2c(C)cc(C)c(/C(=C\c3ccc(OC)cc3)c3ccccc3)c2/N=N/c2cc(C)cc(C)c2)cc1         ACHN  > 56.5 µM (inactive)
2           Clc1c2nc3ccccc3c-2[nH]c2ccccc12         ACHN    21.3 µM (inactive)
3                 COC(=O)c1nc(NC#N)nc(O)c1C         ACHN  > 73.6 µM (inactive)
4  CC1=NN=C(N)N/C1=C\C(Sc1ccc(Cl)cc1)c1ccc(Cl)cc1Cl (stereo unspecified)         ACHN    14.2 µM (inactive)
5  N[C@@H](Cc1ccc(N(CCCl)CCCl)cc1)C(=O)O [MELPHALAN HYDROCHLORIDE]         ACHN    9.57 µM (inactive)

Record GI50 for all entries; do not skip any.
1. CC(=O)OCCOCBr
2. Cc1ccc(/C=N\NC(=O)c2ccncc2)s1
3. CCCN(CCC)C(=O)c1c([N+](=O)[O-])cc(C(F)(F)F)cc1[N+](=O)[O-]
4. O=C(N[C@@H](c1ccccc1)[C@@H](O)C(=O)OCc1ccc([N+](=O)[O-])cc1)c1ccccc1

Resp:
1. > 100 µM (inactive)
2. > 100 µM (inactive)
3. 65.9 µM (inactive)
4. > 100 µM (inactive)
